Sourced from paper PMC5402304

System: SK-OV-3/DDP
ASSAY_INFO: MTT cytotoxicity assay, SK-OV-3/DDP
Type: cell-based, human
MEASUREMENT_CONTEXT: Homo sapiens; SK-OV-3/DDP, 48 h, MTT
pIC50: −log10 of the molar value.
MEASUREMENT_NAME: pIC50

| COMPOUND | MEASUREMENT_NAME | MEASURED |
| --- | --- | --- |
| COc1cc2c(cc1O)C(=O)c1nccc3cc(OC(C)C)c(OC)c-2c13 | pIC50 | 4.41 |

----------
Tested on: MGC80-3
ASSAY_INFO: MTT cytotoxicity assay, MGC80-3
Assay type: cell-based, human
MEASUREMENT_CONTEXT: Homo sapiens, MGC-803; MGC80-3, 48 h, MTT
pIC50: −log10 of the molar value.
MEASUREMENT_NAME: pIC50

| MOLECULE | EXPERIMENTAL_TARGET | MEASUREMENT_NAME | MEASURED |
| --- | --- | --- | --- |
| COc1cc2c(cc1O)C(=O)c1nccc3cc(OC(C)C)c(OC)c-2c13 [OD] | MGC80-3 | pIC50 | 4.63 |
